- Assay system: T1, PKC-α (purified isoform) (Homo sapiens (Human), UniProt P17252 2-672)
- T1 construct: also called purified PKC-alpha; commercially purified PKC-alpha
- Procedure details: competitive ELISA, coated purified PKC-α, vs anti-PKC α (SC-208); PRE 200 µM
Measurement label: relative binding capacity (100-%n, DMSO subtracted) (%)
Write it as a number; the unit % goes unstated.

Recorded relative binding capacity (100-%n, DMSO subtracted), per entry:
Give a short answer stating reported relative binding capacity (100-%n, DMSO subtracted) for RRKKGGKDFVVKR (also called peptide PRE 1; peptide recognition element 1) [PRE 1] .
2.1

Give a short answer stating reported relative binding capacity (100-%n, DMSO subtracted) for Ac-KDANQLIGISI-NH2 (also called peptide PRE 6) [PRE 6] .
0

Give a short answer stating reported relative binding capacity (100-%n, DMSO subtracted) for ILEDKGGDAQNLIGISI (also called peptide PRE 8) [PRE 8] .
0

Give a short answer stating reported relative binding capacity (100-%n, DMSO subtracted) for Ac-AKGIQEVKGGDAQNLIGISI-NH2 (also called peptide PRE 3) [PRE 3] .
22.6

Give a short answer stating reported relative binding capacity (100-%n, DMSO subtracted) for Ac-KDAQNLIGISI-NH2 (also called peptide PRE 4) [PRE 4] .
22.8

Give a short answer stating reported relative binding capacity (100-%n, DMSO subtracted) for Ac-AKGIQEVKGGKDAQNLIGISI-NH2 (also called peptide PRE 5) [PRE 5] .
0

Now for another entry.
Give a short answer stating reported relative binding capacity (100-%n, DMSO subtracted) for Ac-ISIGILNQADK-NH2 (also called peptide PRE 10) [PRE 10] .
0
